Biological target: Sterol O-acyltransferase 1 (Chlorocebus aethiops)
Sequence (O77760 whole entry): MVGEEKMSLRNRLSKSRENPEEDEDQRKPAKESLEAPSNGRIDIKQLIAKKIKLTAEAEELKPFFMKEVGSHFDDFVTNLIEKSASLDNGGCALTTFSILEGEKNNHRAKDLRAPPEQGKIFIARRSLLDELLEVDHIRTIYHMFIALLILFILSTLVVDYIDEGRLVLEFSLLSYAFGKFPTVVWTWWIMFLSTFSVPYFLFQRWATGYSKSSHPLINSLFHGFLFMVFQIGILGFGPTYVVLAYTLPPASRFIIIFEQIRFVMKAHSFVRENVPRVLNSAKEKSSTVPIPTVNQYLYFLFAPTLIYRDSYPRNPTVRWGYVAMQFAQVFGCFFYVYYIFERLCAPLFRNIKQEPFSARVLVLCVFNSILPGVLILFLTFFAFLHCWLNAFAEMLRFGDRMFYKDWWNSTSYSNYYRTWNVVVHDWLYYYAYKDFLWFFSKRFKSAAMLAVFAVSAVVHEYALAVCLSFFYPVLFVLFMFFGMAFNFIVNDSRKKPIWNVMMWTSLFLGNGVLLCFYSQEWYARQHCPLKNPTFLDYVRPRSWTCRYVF
Test: Inhibition of African green monkey SOAT1 expressed in CHO cells assessed as reduction in neutral lipid synthesis incubated for 6 hrs using [1-14C]oleic acid by thin-layer chromatography
Type: cell-based
pIC50: −log10 of the molar value. Non-standard residues stand in square brackets, D forms with d. Residues, ends and D or L forms follow the SMILES beside them. *: point of attachment. NMeF = CN[C@@H](Cc1ccccc1)C(=O)O; NMeV = CN[C@H](C(=O)O)C(C)C; Butyryl = CCCC(=O)*; X1 = CN(Cc1nccs1)*
REPORTED_PROPERTY: pIC50

Retrieve pIC50 measured for CCCC(=O)N(C)[C@H](C(=O)N1CCC[C@H]1C(=O)N(C)[C@@H](Cc1ccccc1)C(=O)N[C@@H](CC(C)C)C(=O)N(C)[C@H](C(=O)N(C)Cc1nccs1)C(C)C)C(C)C (Butyryl-[NMeV]P[NMeF]L[NMeV]-X1) and print it.
5.74

[I] COc1c([C@H](CC(C)C)OC(C)=O)ccc2c1C(=O)OCc1cc(C)cc(O)c1O2
[II] CCCC(=O)N(C)[C@H](C(=O)N1CCC[C@H]1C(=O)N(C)[C@@H](Cc1ccccc1)C(=O)N[C@@H](CC(C)C)C(=O)N[C@H](C(=O)N(C)Cc1nccs1)C(C)C)C(C)C (Butyryl-[NMeV]P[NMeF]LV-X1)
Hi there! Just curious which has the higher pIC50 between I and II . Which one? Tell me its label.
I
